Target: SETD2(1434-1711) (Homo sapiens)
Construct: SETD2 (1434-1711) Assay; catalogue N/A
Sequence (Q9BYW2 1434-1711): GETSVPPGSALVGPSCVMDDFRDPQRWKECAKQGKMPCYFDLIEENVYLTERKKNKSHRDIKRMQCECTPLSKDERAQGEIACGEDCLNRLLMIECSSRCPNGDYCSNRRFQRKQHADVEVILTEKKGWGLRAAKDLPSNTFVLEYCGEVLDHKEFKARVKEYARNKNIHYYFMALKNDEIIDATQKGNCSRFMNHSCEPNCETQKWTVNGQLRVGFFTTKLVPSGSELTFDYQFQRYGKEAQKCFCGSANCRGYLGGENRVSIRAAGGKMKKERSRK
Assay: SETD2 (1434-1711) assay
Format: biochemical
Details: read-out: SETD2 (1434-1711)
value type: pIC50
Numbers only, as −log10 of the molar value.

A selection of reference data follows.
compound: Cc1ccc(F)c2cc(C(=O)Nc3cccc(N4CC5(CCNCC5)C4)c3)[nH]c12
pIC50: 8.00
//
compound: Cc1cccc2cc(C(=O)Nc3ccc4ncc(CN(C)C)n4c3C)[nH]c12
pIC50: 5.74
//
compound: Cc1ccc(F)c2cc(C(=O)Nc3cccc(C4CCCN4)c3)[nH]c12 (centres unmarked)
pIC50: 6.52

Provide pIC50 values for the following items, in order.
1. Cc1ccc(F)c2cc(C(=O)Nc3cccc(N4CCOc5ccccc54)c3)[nH]c12
2. CCOC(=O)CC(NC(=O)c1cc2cccc(C)c2[nH]1)c1ccncc1 (centres unmarked)
3. CCC(=O)N1CCN(C2CCCC(NC(=O)c3cc4c(F)ccc(C)c4[nH]3)C2)CC1C(F)(F)F (centres unmarked) [compound 1168]
4. Cc1ccc(F)c2cc(C(=O)Nc3cccc(-c4cc5cnccn5c4)c3)[nH]c12
5. Cc1cc(-c2ncccn2)cnc1C(NC(=O)c1cc2cccc(C)c2[nH]1)C1CC1 (centres unmarked)
6. Cc1cccc2cc(C(=O)NC3CCCCC3)[nH]c12
7. CC(=O)N1CCN(c2cccc(NC(=O)c3cc4c(F)ccc(C)c4[nH]3)c2F)CC1
8. CNC(=O)CCCc1cccc(NC(=O)c2cc3c(F)ccc(C)c3[nH]2)c1

1: 5.40; 2: 4.16; 3: 5.89; 4: 7.15; 5: 6.52; 6: 4.97; 7: 7.15; 8: 6.52

Required: pIC50, one value per compound below.
1. Cc1ccc(F)c2cc(C(=O)Nc3cc(F)cc(N4CCN(C(=O)CN(C)C)C(C)C4)c3)[nH]c12 (centres unmarked)
2. COCC(=O)N(C)[C@H]1CCN([C@H]2CCC[C@@H](NC(=O)c3cc4c(F)ccc(C)c4[nH]3)C2)C1

1. 8.05
2. 8.10

---

Kindly state pIC50 for each of the entries shown.
Biological target: SETD2(1434-1711) (Homo sapiens)
Construct: SETD2 (1434-1711) Assay; catalogue N/A
Sequence (Q9BYW2 1434-1711): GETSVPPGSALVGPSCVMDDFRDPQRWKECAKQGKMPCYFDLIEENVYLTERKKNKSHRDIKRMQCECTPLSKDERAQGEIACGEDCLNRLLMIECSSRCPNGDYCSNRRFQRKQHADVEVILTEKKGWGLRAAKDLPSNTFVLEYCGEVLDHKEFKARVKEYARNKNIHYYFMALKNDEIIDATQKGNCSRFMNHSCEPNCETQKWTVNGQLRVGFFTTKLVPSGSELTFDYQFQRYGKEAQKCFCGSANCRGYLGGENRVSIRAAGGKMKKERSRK
Assay: SETD2 (1434-1711) assay
Type: biochemical
Settings: read-out: SETD2 (1434-1711)
Numbers only, as −log10 of the molar value.

compound: Cc1cccc2cc(C(=O)N[C@@H]3C[C@H]4CC[C@@H]3CN4C(=O)CCN)[nH]c12
pIC50: 4.44

# batch size: 6; output pIC50 per entry
1. CC(=O)N1CCC12CN(C1CCCC(NC(=O)c3cc4c(F)ccc(C)c4[nH]3)C1)C2 (centres unmarked) [compound 951]
2. Cc1ccc(F)c2cc(C(=O)Nc3cccc(C(C)(C)O)c3)[nH]c12
3. Cc1ccc(F)c2cc(C(=O)Nc3cccc(C4CCCCN4)c3)[nH]c12 (centres unmarked)
4. CC(=O)N1CCN([C@@H]2CCC[C@@H](NC(=O)c3cc4c(F)ccc(C)c4[nH]3)C2)C[C@@H]1C(F)(F)F
5. Cc1ccc(F)c2cc(C(=O)NC3CCCC(N4CCN5C(=O)OCC5C4)C3)[nH]c12 (centres unmarked) [compound 1135]
6. Cc1cccnc1C(CN(C)C)NC(=O)c1cc2cccc(C)c2[nH]1 (centres unmarked)

1: 5.15; 2: 6.22; 3: 6.52; 4: 5.28; 5: 7.70; 6: 4.88
